# credit: ChEMBL document CHEMBL1933031

# assay: Inhibition of PI3K-mediated p70S6K1 phosphorylation at Thr389 at 3 uM by Western blot analysis
Calls of active or inactive are those of the source. No cut-off for these calls is given here.
Classes used: t = active, f = inactive

structureSmilesString	labelValue
C=CC(=O)Oc1cccc(-c2nc(N3CCOCC3)c3cc4ncccc4n3n2)c1	t
O=C(Oc1cccc(-c2nc(N3CCOCC3)c3cc4ncccc4n3n2)c1)c1ccco1	f
CCC(=O)Oc1cccc(-c2nc(N3CCOCC3)c3cc4ncccc4n3n2)c1	t
O=C(Oc1cccc(-c2nc(N3CCOCC3)c3cc4ncccc4n3n2)c1)c1ccncc1	f
CCCC(CCC)C(=O)Oc1cccc(-c2nc(N3CCOCC3)c3cc4ncccc4n3n2)c1	t
CC(=O)Oc1cccc(-c2nc(N3CCOCC3)c3cc4ncccc4n3n2)c1	t
CCCC(=O)Oc1cccc(-c2nc(N3CCOCC3)c3cc4ncccc4n3n2)c1	t
Oc1cccc(-c2nc(N3CCOCC3)c3cc4ncccc4n3n2)c1	t
